The origin of these recorded values is ChEMBL document CHEMBL4118255.

- System: Pseudomonas aeruginosa
- Experiment notes: Antibacterial activity against penicillin-susceptible Pseudomonas aeruginosa ATCC 27853 incubated for 24 hrs by […]
- Type: functional
- Reported conditions: ATCC 27853, 24 h

Entry smiles: CC[C@H]1OC(=O)[C@H](C)C(=O)[C@H](C)[C@@H](O[C@@H]2O[C@H](C)C[C@H](N(C)C)[C@H]2O)[C@](C)(OC)C[C@@H](C)C(=O)[C@H](C)[C@@H](OC(=O)NCCNC(=O)C#Cc2ccc(F)cc2)[C@]1(C)O
MIC: > 128 µg/mL

Entry smiles: CC[C@H]1OC(=O)[C@H](C)[C@@H](OC(=O)Cc2cccnc2)[C@H](C)[C@@H](O[C@@H]2O[C@H](C)C[C@H](N(C)C)[C@H]2O)[C@](C)(OC)C[C@@H](C)C(=O)[C@H](C)[C@@H](OC(=O)NCCNC(=O)c2ccc(C3CCCCC3)cc2)[C@]1(C)O
MIC: 128 µg/mL

Entry smiles: CC[C@H]1OC(=O)[C@H](C)[C@@H](OC(=O)Cc2cccnc2)[C@H](C)[C@@H](O[C@@H]2O[C@H](C)C[C@H](N(C)C)[C@H]2O)[C@](C)(OC)C[C@@H](C)C(=O)[C@H](C)[C@@H](OC(=O)NCCNC(=O)C#Cc2ccc(C)cc2)[C@]1(C)O
MIC: > 128 µg/mL

Entry smiles: CC[C@H]1OC(=O)[C@H](C)[C@@H](O[C@H]2C[C@@](C)(OC)[C@@H](O)[C@H](C)O2)[C@H](C)[C@@H](O[C@@H]2O[C@H](C)C[C@H](N(C)C)[C@H]2O)[C@](C)(OC)C[C@@H](C)C(=O)[C@H](C)[C@@H](O)[C@]1(C)O
MIC: 64 µg/mL

Entry smiles: CC[C@H]1OC(=O)[C@H](C)C(=O)[C@H](C)[C@@H](O[C@@H]2O[C@H](C)C[C@H](N(C)C)[C@H]2O)[C@](C)(OC)C[C@@H](C)C(=O)[C@H](C)[C@@H](OC(=O)NCCNC(=O)C#Cc2ccccc2Cl)[C@]1(C)O
MIC: > 128 µg/mL

Entry smiles: CC[C@H]1OC(=O)[C@H](C)C(=O)[C@H](C)[C@@H](O[C@@H]2O[C@H](C)C[C@H](N(C)C)[C@H]2O)[C@](C)(OC)C[C@@H](C)C(=O)[C@H](C)[C@@H](OC(=O)NCCNC(=O)C#Cc2cccc3ccccc23)[C@]1(C)O
MIC: > 128 µg/mL

Entry smiles: CC[C@H]1OC(=O)[C@H](C)C(=O)[C@H](C)[C@@H](O[C@@H]2O[C@H](C)C[C@H](N(C)C)[C@H]2O)[C@](C)(OC)C[C@@H](C)C(=O)[C@H](C)[C@@H](OC(=O)NCCNC(=O)C#Cc2ccc(Cl)cc2Cl)[C@]1(C)O
MIC: > 128 µg/mL

Entry smiles: CC[C@H]1OC(=O)[C@H](C)[C@@H](OC(=O)Cc2cccnc2)[C@H](C)[C@@H](O[C@@H]2O[C@H](C)C[C@H](N(C)C)[C@H]2O)[C@](C)(OC)C[C@@H](C)C(=O)[C@H](C)[C@@H](OC(=O)NCCNC(=O)c2ccc([N+](=O)[O-])cc2)[C@]1(C)O
MIC: 64 µg/mL

----------
compounds and their reported Ratio
- System: Streptococcus pneumoniae
- Experiment notes: Potency index, ratio of clarithromycin MIC to compound MIC for erythromycin-resistant Streptococcus pneumoniae A22072 harboring mefA gene
- Type: functional
Measure: Ratio

Entry smiles: CC[C@H]1OC(=O)[C@H](C)[C@@H](OC(=O)Cc2cccnc2)[C@H](C)[C@@H](O[C@@H]2O[C@H](C)C[C@H](N(C)C)[C@H]2O)[C@](C)(OC)C[C@@H](C)C(=O)[C@H](C)[C@@H](OC(=O)NCCNC(=O)c2ccc([N+](=O)[O-])cc2)[C@]1(C)O
Test target: Streptococcus pneumoniae
Recorded value: 4
//
Entry smiles: CC[C@H]1OC(=O)[C@H](C)C(=O)[C@H](C)[C@@H](O[C@@H]2O[C@H](C)C[C@H](N(C)C)[C@H]2O)[C@](C)(OC)C[C@@H](C)C(=O)[C@H](C)[C@@H](OC(=O)NCCNC(=O)C#Cc2ccc(C)cc2)[C@]1(C)O
Test target: Streptococcus pneumoniae
Recorded value: 4
//
Entry smiles: CC[C@H]1OC(=O)[C@H](C)[C@@H](OC(=O)Cc2cccnc2)[C@H](C)[C@@H](O[C@@H]2O[C@H](C)C[C@H](N(C)C)[C@H]2O)[C@](C)(OC)C[C@@H](C)C(=O)[C@H](C)[C@@H](OC(=O)NCCNC(=O)c2cc([N+](=O)[O-])cc([N+](=O)[O-])c2)[C@]1(C)O
Test target: Streptococcus pneumoniae
Recorded value: 4
//
Entry smiles: CC[C@H]1OC(=O)[C@H](C)[C@@H](OC(=O)Cc2cccnc2)[C@H](C)[C@@H](O[C@@H]2O[C@H](C)C[C@H](N(C)C)[C@H]2O)[C@](C)(OC)C[C@@H](C)C(=O)[C@H](C)[C@@H](OC(=O)NCCNC(=O)c2ccc([N+](=O)[O-])cc2N)[C@]1(C)O
Test target: Streptococcus pneumoniae
Recorded value: 8

----------
- Test system: Bacillus subtilis
- Experiment notes: Antibacterial activity against erythromycin-susceptible Bacillus subtilis ATCC 9372 after 24 hrs by tube-dilution method
- Format: functional
- Reported conditions: ATCC 9372, 24 h
Measure: MIC

Entry smiles: CC[C@H]1OC(=O)[C@H](C)[C@@H](OC(=O)Cc2cccnc2)[C@H](C)[C@@H](O[C@@H]2O[C@H](C)C[C@H](N(C)C)[C@H]2O)[C@](C)(OC)C[C@@H](C)C(=O)[C@H](C)[C@@H](OC(=O)NCCNC(=O)c2ccc([N+](=O)[O-])cc2)[C@]1(C)O
Measure: MIC
Recorded value: 2 µg/mL

Entry smiles: CC[C@H]1OC(=O)[C@H](C)C(=O)[C@H](C)[C@@H](O[C@@H]2O[C@H](C)C[C@H](N(C)C)[C@H]2O)[C@](C)(OC)C[C@@H](C)C(=O)[C@H](C)[C@@H](OC(=O)NCCNC(=O)C#Cc2ccccc2Cl)[C@]1(C)O
Measure: MIC
Recorded value: 4 µg/mL

Entry smiles: CC[C@H]1OC(=O)[C@H](C)[C@@H](OC(=O)Cc2cccnc2)[C@H](C)[C@@H](O[C@@H]2O[C@H](C)C[C@H](N(C)C)[C@H]2O)[C@](C)(OC)C[C@@H](C)C(=O)[C@H](C)[C@@H](OC(=O)NCCNC(=O)/C=C/c2ccc([N+](=O)[O-])cc2)[C@]1(C)O
Measure: MIC
Recorded value: 4 µg/mL

Entry smiles: CC[C@H]1OC(=O)[C@H](C)C(=O)[C@H](C)[C@@H](O[C@@H]2O[C@H](C)C[C@H](N(C)C)[C@H]2O)[C@](C)(OC)C[C@@H](C)C(=O)[C@H](C)[C@@H](OC(=O)NCCNC(=O)C#Cc2ccc(Cl)cc2Cl)[C@]1(C)O
Measure: MIC
Recorded value: 1 µg/mL

Entry smiles: CC[C@H]1OC(=O)[C@H](C)C(=O)[C@H](C)[C@@H](O[C@@H]2O[C@H](C)C[C@H](N(C)C)[C@H]2O)[C@](C)(OC)C[C@@H](C)C(=O)[C@H](C)[C@@H](OC(=O)NCCNC(=O)C#Cc2ccccc2)[C@]1(C)O
Measure: MIC
Recorded value: 4 µg/mL

Entry smiles: CC[C@H]1OC(=O)[C@H](C)C(=O)[C@H](C)[C@@H](O[C@@H]2O[C@H](C)C[C@H](N(C)C)[C@H]2O)[C@](C)(OC)C[C@@H](C)C(=O)[C@H](C)[C@@H](OC(=O)NCCNC(=O)C#Cc2ccc(Cl)cc2)[C@]1(C)O
Measure: MIC
Recorded value: 2 µg/mL

Entry smiles: CC[C@H]1OC(=O)[C@H](C)[C@@H](OC(=O)Cc2cccnc2)[C@H](C)[C@@H](O[C@@H]2O[C@H](C)C[C@H](N(C)C)[C@H]2O)[C@](C)(OC)C[C@@H](C)C(=O)[C@H](C)[C@@H](OC(=O)NCCNC(=O)C#Cc2ccc(C)cc2)[C@]1(C)O
Measure: MIC
Recorded value: 2 µg/mL

Entry smiles: CC[C@H]1OC(=O)[C@H](C)C(=O)[C@H](C)[C@@H](O[C@@H]2O[C@H](C)C[C@H](N(C)C)[C@H]2O)[C@](C)(OC)C[C@@H](C)C(=O)[C@H](C)[C@@H](OC(=O)NCCNC(=O)C#Cc2ccc(F)cc2)[C@]1(C)O
Measure: MIC
Recorded value: 2 µg/mL

Entry smiles: CC[C@H]1OC(=O)[C@H](C)C(=O)[C@H](C)[C@@H](O[C@@H]2O[C@H](C)C[C@H](N(C)C)[C@H]2O)[C@](C)(OC)C[C@@H](C)C(=O)[C@H](C)[C@@H](OC(=O)NCCNC(=O)C#Cc2ccc(Br)cc2)[C@]1(C)O
Measure: MIC
Recorded value: 1 µg/mL

Entry smiles: CC[C@H]1OC(=O)[C@H](C)[C@@H](OC(=O)Cc2cccnc2)[C@H](C)[C@@H](O[C@@H]2O[C@H](C)C[C@H](N(C)C)[C@H]2O)[C@](C)(OC)C[C@@H](C)C(=O)[C@H](C)[C@@H](OC(=O)NCCNC(=O)c2cc([N+](=O)[O-])cc([N+](=O)[O-])c2)[C@]1(C)O
Measure: MIC
Recorded value: 1 µg/mL

Entry smiles: CC[C@H]1OC(=O)[C@H](C)C(=O)[C@H](C)[C@@H](O[C@@H]2O[C@H](C)C[C@H](N(C)C)[C@H]2O)[C@](C)(OC)C[C@@H](C)C(=O)[C@H](C)[C@@H](OC(=O)NCCNC(=O)C#Cc2cccc3ccccc23)[C@]1(C)O
Measure: MIC
Recorded value: 1 µg/mL

Entry smiles: CC[C@H]1OC(=O)[C@H](C)[C@@H](OC(=O)Cc2cccnc2)[C@H](C)[C@@H](O[C@@H]2O[C@H](C)C[C@H](N(C)C)[C@H]2O)[C@](C)(OC)C[C@@H](C)C(=O)[C@H](C)[C@@H](OC(=O)NCCNC(=O)c2ccc([N+](=O)[O-])cc2N)[C@]1(C)O
Measure: MIC
Recorded value: 1 µg/mL

Entry smiles: CC[C@H]1OC(=O)[C@H](C)[C@@H](OC(=O)Cc2cccnc2)[C@H](C)[C@@H](O[C@@H]2O[C@H](C)C[C@H](N(C)C)[C@H]2O)[C@](C)(OC)C[C@@H](C)C(=O)[C@H](C)[C@@H](OC(=O)NCCNC(=O)C#Cc2cccc3ccccc23)[C@]1(C)O
Measure: MIC
Recorded value: 2 µg/mL

Entry smiles: CC[C@H]1OC(=O)[C@H](C)[C@@H](OC(=O)Cc2cccnc2)[C@H](C)[C@@H](O[C@@H]2O[C@H](C)C[C@H](N(C)C)[C@H]2O)[C@](C)(OC)C[C@@H](C)C(=O)/C(C)=C/[C@]1(C)O
Measure: MIC
Recorded value: 1 µg/mL

Entry smiles: CC[C@H]1OC(=O)[C@H](C)[C@@H](OC(=O)Cc2cccnc2)[C@H](C)[C@@H](O[C@@H]2O[C@H](C)C[C@H](N(C)C)[C@H]2O)[C@](C)(OC)C[C@@H](C)C(=O)[C@H](C)[C@@H](OC(=O)NCCNC(=O)/C=C/c2ccco2)[C@]1(C)O
Measure: MIC
Recorded value: 8 µg/mL

Entry smiles: CC[C@H]1OC(=O)[C@H](C)[C@@H](O[C@H]2C[C@@](C)(OC)[C@@H](O)[C@H](C)O2)[C@H](C)[C@@H](O[C@@H]2O[C@H](C)C[C@H](N(C)C)[C@H]2O)[C@](C)(OC)C[C@@H](C)C(=O)[C@H](C)[C@@H](O)[C@]1(C)O
Measure: MIC
Recorded value: 0.25 µg/mL
